src = the Human Domainome abundance scans (Beltran et al. 2025)

B1: Transitional endoplasmic reticulum ATPase, residues 26 to 106; numbered along this chain, P55072 (parent)
chain: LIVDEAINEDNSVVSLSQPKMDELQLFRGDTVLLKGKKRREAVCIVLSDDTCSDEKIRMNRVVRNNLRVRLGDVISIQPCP

Variants of: B1
Assay: abundance fitness (aPCA) (normalised: wild type 0, dead -1); higher = more abundant; growth selection in yeast, the domain comes from the species named
Details: Homo sapiens
Measured abundance fitness values are reported for all entries that follow.
Provide a numeric answer; units are not to be included.

Consider the worked cases shown below.
In [3]: df
Out[3]:
   mutation_notation      quantity_kind  measured_value
0               V74L  abundance fitness          -0.117
1               I75E  abundance fitness          -0.633
2               N66L  abundance fitness          -0.012

For the variant R28I , give its reported abundance fitness.
-0.061

Find the measured abundance fitness of V43R and report it.
0.07

Given E5V , respond with its abundance fitness.
-0.068
